test system: RAW264.7; assay: Cytotoxicity against mouse RAW264.7 cells assessed as reduction cell viability at 5 to 50 uM measured after 24 hrs by Celltiter-glo assay; type: cell-based; conditions: raw264.7, 24 h, dose 5-50 µM

>  <compound_string>
C=C1CC[C@@H]2[C@](C)(CO)[C@H](O)CC[C@@]2(C)[C@@H]1C/C=C1\NC(=O)NC1=O

>  <Activity>
Non-Toxic

$$$$
>  <compound_string>
C=C1CC[C@@H]2[C@](C)(CO)[C@H](O)CC[C@@]2(C)[C@@H]1C/C=C1\SC(=O)NC1=O

>  <Activity>
Non-Toxic

$$$$
>  <compound_string>
C=C1CC[C@@H]2[C@](C)(CO)[C@H](O)CC[C@@]2(C)[C@@H]1C/C=C/C(C)=O

>  <Activity>
Toxic

$$$$
>  <compound_string>
C=C1CC[C@@H]2[C@](C)(CO)[C@H](O)CC[C@@]2(C)[C@@H]1C/C=C1\SC(=S)NC1=O

>  <Activity>
Non-Toxic

$$$$
